# target desc: factor G fraction of LAL (Tachypleus tridentatus, UniProt Q27082)
# Construct: Prepared from horseshoe crab, T. tridentatus; from tissue; host or cells: horseshoe crab amebocyte lysate (LAL), factor G fraction
# Sequence (Q27082 20-673): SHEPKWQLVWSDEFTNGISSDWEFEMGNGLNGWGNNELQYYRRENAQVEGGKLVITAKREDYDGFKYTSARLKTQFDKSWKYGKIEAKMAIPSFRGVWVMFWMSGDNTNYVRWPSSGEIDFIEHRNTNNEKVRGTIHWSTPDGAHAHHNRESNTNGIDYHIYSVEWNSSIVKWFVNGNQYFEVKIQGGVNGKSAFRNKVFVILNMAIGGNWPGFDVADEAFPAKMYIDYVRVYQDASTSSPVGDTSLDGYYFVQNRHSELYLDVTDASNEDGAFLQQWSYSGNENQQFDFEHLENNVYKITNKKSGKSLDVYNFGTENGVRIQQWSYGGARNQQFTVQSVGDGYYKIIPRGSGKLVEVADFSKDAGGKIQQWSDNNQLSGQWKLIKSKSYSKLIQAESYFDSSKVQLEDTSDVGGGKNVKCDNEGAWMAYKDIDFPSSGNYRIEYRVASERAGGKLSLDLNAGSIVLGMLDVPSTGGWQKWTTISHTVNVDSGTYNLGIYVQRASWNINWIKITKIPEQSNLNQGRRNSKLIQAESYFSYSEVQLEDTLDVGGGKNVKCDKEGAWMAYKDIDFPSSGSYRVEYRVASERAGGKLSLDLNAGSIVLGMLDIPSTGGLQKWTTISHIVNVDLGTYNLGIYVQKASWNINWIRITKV
# Sequence (Q27083 32-309 partner): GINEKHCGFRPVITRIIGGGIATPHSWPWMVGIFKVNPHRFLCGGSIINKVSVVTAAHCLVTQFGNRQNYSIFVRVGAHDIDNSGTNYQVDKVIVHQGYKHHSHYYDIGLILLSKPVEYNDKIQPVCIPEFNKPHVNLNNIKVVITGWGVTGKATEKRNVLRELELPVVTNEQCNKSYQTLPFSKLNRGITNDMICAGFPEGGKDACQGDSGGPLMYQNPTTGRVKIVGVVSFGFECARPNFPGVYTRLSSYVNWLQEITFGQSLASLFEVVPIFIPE
# protocol description: Method of measuring the titer of the activity of a factor G activation inhibitor (GI)
# Type: biochemical, T. tridentatus
# measurement conditions: 10 pg factor G activating substance (sample No. 106), 37° C. 30 minutes; 100% inhibition = 100 units
# Description: The factor G activation inhibiting titer was measured by the "method of measuring the titer of the activity of a factor G activation inhibitor" described below and expressed in units/mg. Method of measuring the titer of the activity of a factor G activation inhibitor (sometimes abbreviated as GI): Two hundred microliters of the reaction mixture contained the following materials. […] The GI activity was calculated from the following equation. […]
endpoint name: Factor G activation inhibiting titer

Guide cases for Factor G activation inhibiting titer, answers given:
{"columns": ["compound", "Factor G activation inhibiting titer"],
 "data": [
  ["OC[C@H]1O[C@@H](O[C@@H]2[C@@H](O)[C@H](O[C@@H]3[C@@H](O)[C@H](O[C@@H]4[C@@H](O)[C@H](O[C@@H]5[C@@H](O)[C@H](O[C@H]6[C@H](O)[C@@H](CO)OC(O)[C@@H]6O)O[C@H](CO)[C@H]5O)O[C@H](CO)[C@H]4O)O[C@H](CO)[C@H]3O)O[C@H](CO)[C@H]2O)[C@H](O)[C@@H](O)[C@@H]1O (stereo partly drawn) [compound 9, Laminarihexaose]", "55,000 units/mg"],
  ["OC[C@H]1O[C@@H](O[C@H]2[C@H](O)[C@@H](CO)OC(O)[C@@H]2O)[C@H](O)[C@@H](O)[C@@H]1O (stereo partly drawn) [compound 5, Laminasiribose]", "214 units/mg"]
]}

Would you kindly share the measured Factor G activation inhibiting titer for OC[C@H]1O[C@@H](O[C@@H]2[C@@H](O)[C@H](O[C@H]3[C@H](O)[C@@H](CO)OC(O)[C@@H]3O)O[C@H](CO)[C@H]2O)[C@H](O)[C@@H](O)[C@@H]1O (stereo partly drawn) [compound 6, Laminaritriose] ?
4,670 units/mg
